System: A498 renal
Test: NCI tumour cell line growth inhibition, 48 h
Entries annotated with measured TGI

| molecule | TGI |
| --- | --- |
| CC1(C)N=C(N)N=C(N)N1c1ccc(Cl)c(Cl)c1 | > 100 µM |
| Nc1ncnc2nn(C3OC(CO)C(O)C3O)nc12 (stereo unspecified) | > 59.6 µM |
| Cc1ccc(C(=O)N=Nc2c(O)[nH]c3ccc(Cl)cc23)cc1 | > 50 µM |
| COc1ccccc1/C=C/c1nc2ccccc2o1 | > 10 µM |
| CC1(C)CC(=O)c2c(ccc(C(=O)C[C@@H](N)CO)c2N)O1 | 27.7 µM |
| O=c1c2c3c(sc2nc2n1N=C(c1ccc([N+](=O)[O-])cc1)CS2)CCCC3 | > 100 µM |
| CN(C)Cc1cc(C(=O)/C=C/c2ccc(F)cc2)cc(CN(C)C)c1O | 94.8 µM |
| COC(=O)/C(=C\c1c(-c2ccccc2)[nH]c2ccccc12)S(C)(=O)=O | 21.3 µM |
| CC(C)[C@](O)(C(=O)OCC1=CCN2CC[C@@H](O)[C@@H]12)[C@H](C)O | > 375 µM |
| Cc1cc(O)cc(C)c1/C=C/c1cncc(C(=O)OC(C)(C)C)c1 | > 25 µM |
| Cc1ccc2c(CC(=O)O)cc(=O)oc2c1 | > 100 µM |
